Reference for the values: ChEMBL document CHEMBL4513216

# Test system: Plasmodium berghei
# Protocol Text: Screen against P. berghei liver stage (PbLuc), transformed with Luciferase, at 10uM
# Type: functional, HepG2
# Conditions: tested at 10 uM
The whole screen tested about 69,000 compounds, of which about 8,600 (12%) showed an effect of 50% or more. The entries come from a sample that favours strong results as a whole.
Readout Label: INHIBITION
Field: value (include unit after the number)

Below: 5 compounds and their reported INHIBITION.
CN(Cc1ccco1)C(=O)NC(Cn1ccnc1)C(C)(C)C (stereo not given) :: -27.8%
Cc1cnc2n(c1=O)CC(C(=O)Nc1ccon1)CS2 (stereo not given) :: 61.5%
COc1ccc2[nH]c(=O)c(CN(C)C(C)c3ccccn3)cc2c1 (stereo not given) :: -3.55%
CNS(=O)(=O)c1cc(C)c2[nH]c(=O)cc(C)c2c1 :: 56%
Cc1nc(C)c(CNCC2CCCn3ccnc32)s1 (stereo not given) :: 28.7%

Looking up CCN1CCCC1CNCc1cc2cc(OC)c(OC)cc2[nH]c1=O (stereo not given) , I found its INHIBITION recorded as 18.3%

Looking up CC(C)(C)NC(=O)NCc1cnn2ccccc12 , I found its INHIBITION recorded as 35.2%

Looking up Cc1cc(CN(C)C(=O)NC(C)Cc2ccco2)no1 (stereo not given) , I found its INHIBITION recorded as 34.2%

* * *

Overview of reported INHIBITION across a group of molecules:
# Test system: Plasmodium berghei
# Protocol Text: Screen against P. berghei liver stage (PbLuc), transformed with Luciferase, at 10uM
# Assay type: functional, HepG2
# Conditions: tested at 10 uM
In all, about 69,000 compounds went through this assay and about 8,600 (12%) showed an effect of 50% or more. The full list was thinned out, with strong results kept by preference.
The reply should contain only the number, in %.

Below: 3 molecules and their reported INHIBITION.
COc1cc(CN)c(OC)c2c1OCO2 :: -3.48
CCCc1n[nH]c(C2CN(Cc3nnc(C4CC4)n3C)CCO2)n1 (configuration not stated) :: 50.1
CCOC(=O)CN1CCC(NC(=O)OC(C)(C)C)CC1 :: 32.3

Recorded INHIBITION for CCc1n[nH]c(C2CN(Cc3nnc(C4CC4)o3)CCO2)n1 (configuration not stated) on Plasmodium berghei was 13.3

Recorded INHIBITION for O=C(C1CCOC1)N1Cc2ccccc2OC2(CCOCC2)C1 (configuration not stated) on Plasmodium berghei was 12.8

Recorded INHIBITION for Cc1n[nH]c(C2CN(Cc3nnc(C4CC4)n3C)CCO2)n1 (configuration not stated) on Plasmodium berghei was 33.7

* * *

# Tested on: Plasmodium berghei
# Protocol Text: Screen against P. berghei liver stage (PbLuc), transformed with Luciferase, at 10uM
# Assay type: functional, HepG2
# Conditions: tested at 10 uM
In all, about 69,000 compounds went through this assay and about 8,600 (12%) showed an effect of 50% or more. Many of the other results were omitted from the sample, so strong results are more common in it than they were.
Readout Label: INHIBITION (%)
The reply should contain only the number, in %.

Below: 5 compounds and their reported INHIBITION.
CCC(O)CN1CCN(C(=O)c2sccc2C2CC2)CC1 (stereo unspecified) :: 19.5
COCCC(=O)N1CCN(CC2CC2)c2ncccc2C1 :: 55.7
CC(NC(=O)NCc1ccccc1)(C(=O)O)c1ccco1 (stereo unspecified) :: 58
O=C(N1CCCC1)N1CCN(CC2CC2)c2ncccc2C1 :: 20.5
CN(C)c1ccc(C(=O)Nc2ccn(CC(N)=O)n2)cn1 :: -15

Looking up O=C(NCc1ccco1)[C@@H]1CCO[C@@H]2CCN(C3CCOCC3)C[C@H]21 , I found its INHIBITION recorded as 11.3

* * *

# System: Plasmodium berghei
# Protocol Text: Screen against P. berghei liver stage (PbLuc), transformed with Luciferase, at 10uM
# Format: functional, HepG2
# Conditions: tested at 10 uM
The whole screen tested about 69,000 compounds, of which about 8,600 (12%) showed an effect of 50% or more. Many of the other results were omitted from the sample, so strong results are more common in it than they were.
Readout Label: INHIBITION
Field: value (include unit after the number)

Looking up CC(C)NC1CCc2c(ccc(=O)n2CCN2CCOCC2)C1 (stereo not given) , I found its INHIBITION recorded as 73.2%

Looking up COc1ccnc(N2CCN(Cc3ncc(C(C)(C)C)o3)CC2)n1 , I found its INHIBITION recorded as 9.76%

Looking up CCN(CC)C(CNS(=O)(=O)c1ccc(C(N)=O)cc1)c1ccco1 (stereo not given) , I found its INHIBITION recorded as 54.3%

Looking up CCc1ccc(CNC[C@H]2C[C@@H](CO)N(C)[C@H]2c2ccccc2F)o1 , I found its INHIBITION recorded as -3.96%

Looking up CN(C(=O)c1ccc(S(=O)(=O)NC(C)(C)C)cc1)C1(C#N)CCC1 , I found its INHIBITION recorded as 50.4%

Looking up CCn1cc(NC(=O)NCC(c2ccc(OC)cc2)N(C)C)cn1 (stereo not given) , I found its INHIBITION recorded as 34.85%

Looking up CNC(=O)C1Cn2ccnc2C2(CCN(C(=O)c3ccoc3C)CC2)O1 (stereo not given) , I found its INHIBITION recorded as -7.7%

Looking up CN1CCN(C2COC3(CCN(Cc4cccs4)CC3)C2)CC1 (stereo not given) , I found its INHIBITION recorded as 1.94%

* * *

# Test system: Plasmodium berghei
# Protocol Text: Screen against P. berghei liver stage (PbLuc), transformed with Luciferase, at 10uM
# Type: functional, HepG2
# Conditions: tested at 10 uM
Among all 69,000 compounds or so, about 8,600 (12%) showed an effect of 50% or more. This excerpt belongs to a sample that is enriched for strong results.
Overview of reported INHIBITION across a group of molecules:
The reply should contain only the number, in %.

Below: 5 molecules and their reported INHIBITION.
COc1ccc(-c2cc(CN)ccc2F)c(OC)c1OC :: 30.9
O=C(C1CC1)N1CCC(Nc2nc(O)cc(-c3ccsc3)n2)CC1 :: -5.78
CNC(=O)CN1CCC2(CC1)C[C@@H](O)[C@H](c1ccccc1)NC2=O :: 44.8
CCC(C)c1ccc(NC(=O)C2CCN(C(=O)COC)CC2)cc1 (stereo unspecified) :: 16.6
Cc1n[nH]c(C)c1NC(=O)CN1CCCC1Cn1cncn1 (stereo unspecified) :: 30

Recorded INHIBITION for CSc1nnc(C2CCN(C(=O)N3CCOCC3)CC2)n1C(C)C on Plasmodium berghei was 40.85

Recorded INHIBITION for CCc1nnc(Nc2cccc(C3CCN(C(C)=O)CC3)n2)s1 on Plasmodium berghei was -28.6

Recorded INHIBITION for Cn1cc2ncn(C3CCN(c4ccccc4F)CC3)c(=O)c2n1 on Plasmodium berghei was -6.03

Recorded INHIBITION for CCc1nnc(CN2CCCC2Cn2cc(C)cn2)o1 (stereo unspecified) on Plasmodium berghei was -29.1

Recorded INHIBITION for CNc1cc2c(nn1)CCN(C(=O)c1cc(C)no1)C2 on Plasmodium berghei was -65.3

* * *

# System: Plasmodium berghei
# Protocol Text: Screen against P. berghei liver stage (PbLuc), transformed with Luciferase, at 10uM
# Type: functional, HepG2
# Conditions: tested at 10 uM
Screen size: about 69,000 compounds; about 8,600 (12%) showed an effect of 50% or more. The sample as a whole holds a higher share of strong results than the screen did.
Readout Label: INHIBITION (%)
The reply should contain only the number, in %.

Below: 2 compounds and their reported INHIBITION.
O=C1COc2cc(C(=O)N3CCCC(n4cccn4)C3)ccc2N1 (stereo not given) :: -24.2
Cc1nn2cc(CCNC(=O)c3cc(C(C)C)no3)nc2s1 :: -97.2

Looking up CCN(CC(O)c1ccc(C)cc1)C(=O)NC(C)C (stereo not given) , I found its INHIBITION recorded as 17.8

Looking up CC(C)CNC(=O)COc1cccc[n+]1[O-] , I found its INHIBITION recorded as -12.1

Looking up CC(C)N(C)Cc1cc(=O)n2c(n1)CN(C(=O)c1cnccn1)CCC2 , I found its INHIBITION recorded as 33.5

Looking up CNc1ncccc1CN1CCN2CCN(C)CC2C1 (stereo not given) , I found its INHIBITION recorded as 53.8

Looking up CCOCC(O)CN1CCN(C(=O)c2cc(F)cc(F)c2)CC1 (stereo not given) , I found its INHIBITION recorded as 3.73

Looking up CC(=O)N(Cc1noc(C)n1)C1CCN(Cc2c(C)noc2C)C1 (stereo not given) , I found its INHIBITION recorded as -27.8

Looking up CSc1nnc(CNC(=O)Nc2ccccc2Br)n1C , I found its INHIBITION recorded as 19.8

Looking up CC1CCCN1Cc1ccccc1-c1nc(C(C)(C)C)cc(=O)[nH]1 (stereo not given) , I found its INHIBITION recorded as 9

Looking up CN(C)CCOCC1CN(Cc2ccccn2)Cc2nnn(C)c21 (stereo not given) , I found its INHIBITION recorded as -2.35

Looking up CNc1ncccc1CN1CCN(C)CC(C(N)=O)C1 (stereo not given) , I found its INHIBITION recorded as 33.2

Looking up O=C(CCCNc1ncccn1)Nc1cc(C(F)(F)F)c[nH]c1=O , I found its INHIBITION recorded as 29.15

Looking up Cc1cc(C(=O)NCCc2nc3c(s2)CCCC3)n(C)n1 , I found its INHIBITION recorded as 68

Looking up CNc1ncccc1CN1CCN(C)CC(C(=O)N(C)C)C1 (stereo not given) , I found its INHIBITION recorded as 0.696
